test: Ratio of drug concentration in brain to blood of Sprague-Dawley rat at 30 mg/kg, po measured after 3 hrs by LC/MS-MS analysis; type: ADME, organism-based; settings: brain and blood
Observed property: Kp at 3 h
Give bare numbers.

>  <Test smiles>
CNC(=O)c1ccc(-c2c(C)nc3c(OCc4ccc(-c5ccc(F)cc5)cc4)cccn23)cn1.Cl

>  <Measured result>
0.44

$$$$
>  <Test smiles>
Cc1nc2c(OCc3ccc(-c4ccc(F)cc4)cc3)cccn2c1-c1ccc2c(=O)n(C)oc2c1.Cl

>  <Measured result>
0.27

$$$$
>  <Test smiles>
CCNC(=O)c1ccc(-c2c(C)nc3c(OCc4ccc(-c5ccccc5)cc4)cccn23)cn1.Cl

>  <Measured result>
0.3

$$$$

Now for another entry.
Quick one: Kp at 3 h for CNC(=O)c1ccc(-c2c(C)nc3c(OCc4ccc(-c5ccc(F)cc5)cc4F)cccn23)cn1.Cl ?
0.23
